All values here come from patent US11111259B2.

Test system: IMR-90 SnC (irradiated senescent IMR90 cells)
Assay: Senolysis assay (CellTiter-Glo viability)
Format: cell-based, human
Conditions: Homo sapiens, IMR-90, light or radiation study, 72 h; X-ray irradiated senescent IMR90 cells, viability three days after compound addition
pEC50: −log10 of the molar value.

| MOLECULE | pEC50 |
| --- | --- |
| COP(=O)(CN1CCN(CC[C@H](CSc2ccccc2)Nc2ccc(S(=O)(=O)NC(=O)c3ccc(N4CCN(CC5=C(c6ccc(Cl)cc6)CCC(C)(C)C5)CC4)cc3)cc2S(=O)(=O)C(F)(F)F)CC1)OC | > 6.00 |
| CCOP(=O)(O)CN1CCN(CC[C@H](CSc2ccccc2)N(c2ccc(S(=O)(=O)NC(=O)c3ccc(N4CCN(CC5=C(c6ccc(Cl)cc6)CCC(C)(C)C5)CC4)cc3)cc2S(=O)(=O)C(F)(F)F)S(C)(=O)=O)CC1 | 5.00 to 6.00 |
| CCOP(=O)(CN1CCN(CC[C@H](CSc2ccccc2)Nc2ccc(S(=O)(=O)NC(=O)c3ccc(N4CCN(CC5=C(c6ccc(Cl)cc6)CCC(C)(C)C5)CC4)cc3)cc2S(=O)(=O)C(F)(F)F)CC1)OC(C)(C)C (some centres unmarked) | < 5.00 |
| CCOP(=O)(O)CCN(C)CC[C@H](CSc1ccccc1)Nc1ccc(S(=O)(=O)NC(=O)c2ccc(N3CCN(CC4=C(c5ccc(Cl)cc5)CCC(C)(C)C4)CC3)cc2)cc1S(=O)(=O)C(F)(F)F | < 5.00 |
| CCOP(=O)(CCN(C)CC[C@H](CSc1ccccc1)Nc1ccc(S(=O)(=O)NC(=O)c2ccc(N3CCN(CC4=C(c5ccc(Cl)cc5)CCC(C)(C)C4)CC3)cc2)cc1S(=O)(=O)C(F)(F)F)OCC | 5.00 to 6.00 |
